Target: recombinant PRL-3 (Homo sapiens)
Construct: 6xHis (N, cleaved yes); made in house; host or cells: E. coli One Shot BL21 Star
Sequence (O75365 whole entry): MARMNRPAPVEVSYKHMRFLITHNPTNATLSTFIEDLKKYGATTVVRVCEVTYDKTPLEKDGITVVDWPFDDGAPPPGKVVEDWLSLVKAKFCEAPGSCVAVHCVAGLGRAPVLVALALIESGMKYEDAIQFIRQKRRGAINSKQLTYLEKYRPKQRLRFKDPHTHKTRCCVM
Test: In vitro phosphatase assay (DiFMUP hydrolysis), PRL-3; note: test concentration or dose not given here
Assay type: biochemical
Conditions: FDA-approved drug screen; compared to DMSO
assay readout: % Phosphatase Activity (compared to DMSO) PRL-3 (%)
I only need the number, in %, no unit after it.

Some entries whose results are on file:
{"compound": "O=C1c2ccccc2C(=O)C1c1ccccc1 [Phenindione]", "measured target": "recombinant PRL-3 (Homo sapiens)", "data value": 84}
{"compound": "Nc1ccccc1NC(=O)c1ccc(CNc2nccc(-c3cccnc3)n2)cc1 [Mocetinostat (MGCD0103)]", "measured target": "recombinant PRL-3 (Homo sapiens)", "data value": 84}
{"compound": "CN(CCOc1ccc(CC2SC(=O)NC2=O)cc1)c1ccccn1.Cl (stereo not shown) [Rosiglitazone HCl]", "measured target": "recombinant PRL-3 (Homo sapiens)", "data value": 79}

Data request: # get_value(readout='% Phosphatase Activity (compared to DMSO) PRL-3', item= Cl.N=C(N)NN [Aminoguanidine (hydrochloride)] )
Data returned: 87

Data request: Next up: C=CC[C@]1(O)CC[C@H]2[C@@H]3CCC4=CC(=O)CCC4=C3C=C[C@@]21C [Altrenogest]
Data returned: 156

Data request: Item: COC(=O)N[C@H](C(=O)N[C@@H](Cc1ccccc1)[C@@H](O)CN(Cc1ccc(-c2ccccn2)cc1)NC(=O)[C@@H](NC(=O)OC)C(C)(C)C)C(C)(C)C.O=S(=O)(O)O [Atazanavir Sulfate]
Data returned: 83

Data request: Similarly, C[C@@H](O[C@H]1OCCN(Cc2n[nH]c(=O)[nH]2)[C@H]1c1ccc(F)cc1)c1cc(C(F)(F)F)cc(C(F)(F)F)c1 [Aprepitant] ?
Data returned: 80
